- TESTED_ON: Human immunodeficiency virus type 1 protease (Human immunodeficiency virus 1)
pKi: −log10 of the molar value.
MEASURED_QUANTITY: pKi

SMI | MEASURED_QUANTITY | EXPERIMENTAL_VALUE
COC(=O)[C@@H](NC(=O)[C@@H](/C=C/[C@@H](C(=O)N[C@H](C(=O)OC)C(C)C)C(C)C)Cc1ccccc1)C(C)C | pKi | 5.30
COC(=O)[C@@H](NC(=O)[C@@H](/C=C/[C@H](C)C(=O)N[C@H](C(=O)OC)C(C)C)C(C)C)C(C)C | pKi | < 4.17
COC(=O)[C@@H](NC(=O)[C@@H](C)/C=C/[C@@H](Cc1ccccc1)C(=O)N[C@H](C(=O)OC)C(C)C)C(C)C | pKi | < 4.17
